# TGI per record follows
- Tested on: A498 renal
- EXPERIMENT SUMMARY: NCI tumour cell line growth inhibition, 48 h
MEASURED METRIC: TGI

>>> result("CC(=O)OCCOCNC(=S)N/N=C(\\C)c1cnc2ccccc2n1")
"> 100 µM"
>>> result("CC(C)SC(C)(NC(=O)C1C(C)(C)CCC1(C)C)C(=O)O (stereo unspecified)")
"> 100 µM"
>>> result("COC(=O)C(C)(N=Cc1ccccc1)c1ccccc1 (stereo unspecified)")
"> 100 µM"
>>> result("CCOC(=O)c1cc(C(=O)c2ccccc2)n2nc(-c3ccc(Cl)cc3)ccc12")
"49 µM"
>>> result("O=C1C[C@@H]2C(COC(=O)c3ccccc3)N(OCc3ccccc3)C[C@@H]2O1 (stereo partly specified)")
"> 100 µM"
>>> result("COCC(=O)CP(=O)(OC)OC")
"> 100 µM"
>>> result("Cc1ccc(S(=O)(=O)/N=C(\\NN)Nc2ccc(Cl)cc2)cc1")
"> 100 µM"
>>> result("CN(C(=O)Cc1ccc(Cl)c(Cl)c1)[C@H]1CCCC[C@@H]1[N+]1(C)CCCC1")
"> 100 µM"
>>> result("Cc1sc(C)c(Cc2c(C)sc(C)c2CCl)c1CCl")
"> 100 µM"
>>> result("CCOC(=O)N1CCN(c2ccc3c(C)cc(C)nc3n2)CC1")
"> 100 µM"
>>> result("O=C(O)/C(=C/c1c(O)ccc2ccccc12)c1csc(-c2nc(/C(=C\\c3c(O)ccc4ccccc34)C(=O)O)cs2)n1")
"41.7 µM"
>>> result("CCC(=O)C(C)C1=Nc2nnc(CCCCCCCc3nnc4n3C(=O)C(C(C)C(=O)CC)=N4)n2C1=O (stereo unspecified)")
"> 100 µM"
>>> result("NNc1cccc(/C=C/c2ccccc2)cc1=O")
"55.7 µM"
>>> result("O=c1/c(=C\\c2ccccc2)sc2n1C(c1ccccc1)C1(O)CCCCC1N=2 (stereo unspecified)")
"> 100 µM"
>>> result("O=C(O)CCCCCOc1cccnc1/C=N/NC1=NCCN1")
"> 100 µM"
>>> result("COC(=O)c1c2c(c(C)[n+]([O-])c1C)C(=O)C=C(NCc1ccc(F)c(F)c1)C2=O")
"2.43 µM"

----------
- Tested on: CCRF-CEM leukemia
- EXPERIMENT SUMMARY: NCI tumour cell line growth inhibition, 48 h
MEASURED METRIC: TGI

>>> result("C/C(=N\\NS(=O)(=O)c1ccccc1)c1ccccc1")
"> 100 µM"
>>> result("CC1(C)OC(=O)C=C([O-])O1.CC1(C)OC(=O)C=C([O-])O1.O=S(=O)([O-])c1ccc([O-])c2ncccc12.O=S(=O)([O-])c1ccc([O-])c2ncccc12.[Ti+4]")
"> 100 µM"
>>> result("NC(=O)c1nnc2cc(F)ccc2c1N")
"> 100 µM"
>>> result("CCOC(=O)c1[nH]c(-c2ccc(Cl)cc2)cc1-c1cccnc1")
"> 100 µM"
>>> result("CCOC(=O)/C(=C\\c1ccc(N(C)C)cc1)S(=O)(=O)C(F)(F)C(F)(F)C(F)(F)C(F)(F)F")
"> 100 µM"
>>> result("CC[C@@]1(O)C(=O)NCc2c1cc1n(c2=O)Cc2cc3c(N)cccc3nc2-1")
"> 19.5 µM"
